assay: physchem; conditions: octan-1-ol/water, pH 7.4, LogD7.4
Assign yes (1) whenever logD does not fall below 1; assign no (0) whenever it does.

molecule: CNC(=O)c1ccc(Nc2ncc(F)c(-c3cnc(C)n3C(C)C)n2)cc1F
cat: yes (1)
--
molecule: NC(Cc1c[nH]c2ccccc12)C(=O)O (stereo not drawn) [DL-TRYPTOPHAN]
cat: no (0)
--
molecule: CN1Cc2c(N)cccc2[C@@H](c2ccccc2)C1
cat: yes (1)
--
molecule: Cc1ccc(NC(=O)c2ccnc(N3CCOCC3)c2)cc1NC(=O)c1ccc(OCc2ccccn2)cc1
cat: yes (1)
--
molecule: COc1cc(OC)nc(-n2ncc(Cl)c(Cl)c2=O)n1
cat: yes (1)
--
molecule: O=C(Nc1ccc(N2CCOCC2)nc1)c1nnc(Nc2cccc(OCc3ccccn3)c2)o1
cat: yes (1)
--
molecule: CC(C)Oc1cc(Oc2ccc(S(C)(=O)=O)cc2)cc(C(=O)Nc2nccs2)c1
cat: yes (1)
--
molecule: COc1cccc(/C=C2\SC(=O)NC2=O)c1N1CCC[C@@H](N)C1
cat: yes (1)
--
molecule: COc1ccc2c(C)nc(=O)n(CCN3CCC(NCc4cc5c(cn4)OCCO5)CC3)c2c1
cat: no (0)
--
molecule: Cn1nnc2c(C(N)=O)ncn2c1=O [TEMOZOLOMIDE]
cat: no (0)
--
molecule: O=c1c(O)cccc2cc(O)c(O)c(O)c12 [PURPUROGALLIN]
cat: yes (1)

====

assay: physchem; conditions: octan-1-ol/water, pH 7.4
Assign condition met whenever logD does not fall below 2; assign condition not met whenever it does.

molecule: CN(C(=O)Cc1ccc(Cl)c(Cl)c1)[C@H](CN1CCCC1)c1ccccc1
cat: condition met
--
molecule: Cc1cc2c(s1)Nc1ccccc1N=C2N1CCN(C)CC1
cat: condition met
--
molecule: CCC1(C)CC(=O)NC1=O (stereo not given) [ETHOSUXIMIDE]
cat: condition not met
--
molecule: Cc1cc(C(N)=O)ccc1O[C@H]1C[C@H]2CC[C@@H](C1)N2Cc1ccccc1
cat: condition met
--
molecule: CNC1=Nc2ccc(Cl)cc2C(c2ccccc2)=[N+]([O-])C1 [CHLORDIAZEPOXIDE]
cat: condition met

====

assay: physchem; conditions: pH 7.4 buffer

smilesRecord: CN(C)C(=O)Nc1ccc(Cl)c(Cl)c1
unitAbbreviation: µM
solubility thermodynamic: 132
--
smilesRecord: COc1cc(Nc2cc(Oc3ccc(C)nc3)ccn2)cc(OC)c1OC
unitAbbreviation: µM
solubility thermodynamic: 31.6
--
smilesRecord: CC(C)COc1cc(-c2cccc3c(=O)cc(N4CCOCC4)oc23)ccc1NC(=O)CN1CCOCC1
unitAbbreviation: µM
solubility thermodynamic: 3.5
--
smilesRecord: C[C@@H](Oc1cccc2ncnc(Nc3ccc4c(cnn4Cc4ccccn4)c3)c12)C(=O)N(C)C
unitAbbreviation: µM
solubility thermodynamic: 295
--
smilesRecord: CNC(=O)[C@H]1CCCN1Cc1cc2c(Nc3cccc(Cl)c3F)ncnc2cc1OC
unitAbbreviation: µM
solubility thermodynamic: 282

====

Quick list: pKa per entry.
test: physchem
valueKind: pKa

compound: O=C(O)c1cc(O)cc(Cl)c1
valueKind: pKa
censoringSign: =
observed: 8.57
--
compound: Cc1c(Sc2ccc(Cl)cc2)c2c(NS(C)(=O)=O)cccc2n1CC(=O)O
valueKind: pKa
censoringSign: =
observed: 10.2
--
compound: CON=C(C(=O)N[C@@H]1C(=O)N2C(C(=O)O)=C(COC(C)=O)CS[C@H]12)c1csc(N)n1
valueKind: pKa
censoringSign: =
observed: 9.43
--
compound: CCc1nc2cc(O)ccc2c(Oc2ccc(/C=C/C(=O)O)cc2)c1-c1ccccc1
valueKind: pKa
censoringSign: =
observed: 7.81
--
compound: CC1(C)S[C@@H]2[C@H](NC(=O)[C@H](N)c3ccc(O)cc3)C(=O)N2[C@H]1C(=O)O [AMOXICILLIN]
valueKind: pKa
censoringSign: =
observed: 9.77
--
compound: CCCc1c2oc(C(=O)O)cc(=O)c2cc2c(=O)cc(C(=O)O)n(CC)c12 [NEDOCROMIL]
valueKind: pKa
censoringSign: <
observed: 2
--
compound: CCCc1c2nc(C(=O)O)cc(Cl)c2cc2c(=O)cc(C(=O)O)oc12
valueKind: pKa
censoringSign: =
observed: 3.7
--
compound: O=C(O)c1cc(=O)c2ccc(O)cc2o1
valueKind: pKa
censoringSign: =
observed: 7.3
--
compound: O=C(O)CCCCCCCC(=O)O [AZELAIC ACID]
valueKind: pKa
censoringSign: =
observed: 5.87
--
compound: NCCc1ccc(O)c(O)c1F
valueKind: pKa
censoringSign: =
observed: 10.3
